- Assay Summary: Test compound plasma levels and PK parameters in IPF patients (LC-MS/MS, non-compartmental analysis)
- Format: in vivo, human
- Measurement Context: human, plasma, oral, week 4, 600 mg q.d., read-out: median maximum observed plasma concentration (Cmax)

>  <Compound>
CCc1nc2c(C)cc(N3CCN(CC(=O)N4CC(O)C4)CC3)cn2c1N(C)c1nc(-c2ccc(F)cc2)c(C#N)s1 [Compound 1]

>  <Cmax [ng/mL]>
6060

$$$$

* * *

- Assay Summary: Test compound plasma levels and PK parameters in IPF patients (LC-MS/MS, non-compartmental analysis)
- Format: in vivo, human
- Measurement Context: human, plasma, oral, week 4, 600 mg q.d., read-out: median tmax

>  <Smiles Structure>
CCc1nc2c(C)cc(N3CCN(CC(=O)N4CC(O)C4)CC3)cn2c1N(C)c1nc(-c2ccc(F)cc2)c(C#N)s1

>  <Tmax>
4 h

$$$$
